Taken from patent US9527869B2.

- System: PI3Kδ (Homo sapiens, UniProt O00329)
- Construct: purchased Millipore Ltd (Billerica, Mass.)
- Sequence (O00329 whole entry): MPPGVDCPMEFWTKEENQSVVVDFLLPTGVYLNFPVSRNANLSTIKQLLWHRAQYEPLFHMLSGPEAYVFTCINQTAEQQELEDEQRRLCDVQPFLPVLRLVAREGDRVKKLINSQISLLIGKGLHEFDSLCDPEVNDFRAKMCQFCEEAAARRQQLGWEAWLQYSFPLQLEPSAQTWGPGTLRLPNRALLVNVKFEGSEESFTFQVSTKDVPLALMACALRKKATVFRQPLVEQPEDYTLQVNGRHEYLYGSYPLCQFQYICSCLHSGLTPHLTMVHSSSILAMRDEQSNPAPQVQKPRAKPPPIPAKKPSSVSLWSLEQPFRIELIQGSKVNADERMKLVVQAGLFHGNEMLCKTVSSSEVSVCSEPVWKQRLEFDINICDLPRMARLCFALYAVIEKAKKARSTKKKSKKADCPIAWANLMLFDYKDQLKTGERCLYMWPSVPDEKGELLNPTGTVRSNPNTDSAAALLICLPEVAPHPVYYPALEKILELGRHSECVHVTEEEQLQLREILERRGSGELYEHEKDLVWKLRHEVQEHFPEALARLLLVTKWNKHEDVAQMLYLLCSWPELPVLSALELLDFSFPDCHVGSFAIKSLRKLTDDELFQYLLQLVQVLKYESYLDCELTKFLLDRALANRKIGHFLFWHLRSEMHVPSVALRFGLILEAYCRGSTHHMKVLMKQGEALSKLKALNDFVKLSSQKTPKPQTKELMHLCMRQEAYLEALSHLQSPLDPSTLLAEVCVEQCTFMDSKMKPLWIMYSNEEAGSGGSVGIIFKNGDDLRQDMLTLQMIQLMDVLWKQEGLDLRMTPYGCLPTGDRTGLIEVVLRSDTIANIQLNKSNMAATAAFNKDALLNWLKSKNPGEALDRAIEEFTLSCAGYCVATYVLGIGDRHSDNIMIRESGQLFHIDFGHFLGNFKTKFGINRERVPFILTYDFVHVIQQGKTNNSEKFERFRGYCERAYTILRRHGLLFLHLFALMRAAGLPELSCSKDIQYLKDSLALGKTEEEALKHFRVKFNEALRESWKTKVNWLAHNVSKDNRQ
- Sequence (P27986 whole entry partner): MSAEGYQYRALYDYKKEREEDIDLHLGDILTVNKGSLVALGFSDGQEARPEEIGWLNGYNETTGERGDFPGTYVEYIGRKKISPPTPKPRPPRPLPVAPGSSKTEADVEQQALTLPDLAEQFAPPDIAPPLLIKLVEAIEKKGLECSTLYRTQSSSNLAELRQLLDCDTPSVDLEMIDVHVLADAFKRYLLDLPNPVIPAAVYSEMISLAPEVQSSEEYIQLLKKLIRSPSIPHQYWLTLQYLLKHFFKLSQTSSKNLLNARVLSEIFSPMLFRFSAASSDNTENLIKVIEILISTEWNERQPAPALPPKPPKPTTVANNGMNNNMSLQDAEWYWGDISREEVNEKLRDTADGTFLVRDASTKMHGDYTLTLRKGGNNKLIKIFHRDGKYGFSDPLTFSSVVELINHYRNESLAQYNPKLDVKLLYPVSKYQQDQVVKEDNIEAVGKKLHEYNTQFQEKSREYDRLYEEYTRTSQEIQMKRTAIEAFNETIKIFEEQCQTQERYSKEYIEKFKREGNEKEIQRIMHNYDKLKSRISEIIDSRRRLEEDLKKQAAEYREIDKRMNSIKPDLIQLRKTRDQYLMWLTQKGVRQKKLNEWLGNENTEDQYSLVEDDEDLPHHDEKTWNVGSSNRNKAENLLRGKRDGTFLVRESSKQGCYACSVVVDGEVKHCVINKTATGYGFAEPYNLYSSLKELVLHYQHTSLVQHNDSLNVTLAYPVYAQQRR
- Test method notes: In vitro determination of the PI3K enzyme inhibitory activity in the cell free assay (ADP-Glo Kinase Assay), PI3Kδ
- Type: biochemical
- Reported conditions: ATP 80 μM, read-out: PI3K delta inhibition
pIC50: −log10 of the molar value.
# pIC50 annotations

Example entries and their recorded answers appear below.
>>> reported_measurement("C[C@H](c1cc2ccccn2c1-c1ccc(CN2CCOCC2)cn1)n1nc(-c2cc(O)cc(F)c2)c2c(N)ncnc21 (single isomer, unassigned) [Example 108a]")
"> 8.00"
>>> reported_measurement("CC(c1cc2ccccn2c1-c1cccc(C2CCCN2C)c1)n1nc(-c2cc(O)cc(F)c2)c2c(N)ncnc21 (mixture of isomers)")
"6.00 to 8.00"
>>> reported_measurement("CC(c1cc2ccccn2c1-c1ccccn1)n1nc(-c2cccc(NS(C)(=O)=O)c2)c2c(N)ncnc21 (stereo not drawn)")
"6.00 to 8.00"

Fill in: pIC50 of CC(c1cc2ccccn2c1-c1ccn(CCN(CCO)CCO)n1)n1nc(-c2cc(O)cc(F)c2)c2c(N)ncnc21 (stereo not drawn) is ___
> 8.00

Fill in: pIC50 of CC(c1cc2ccccn2c1-c1cc(CN2CCOCC2)ccn1)n1nc(-c2cc(O)cc(F)c2)c2c(N)ncnc21 (stereo not drawn) is ___
> 8.00

Fill in: pIC50 of CC(c1cc2ccccn2c1-c1ccccn1)n1nc(-c2cc(F)cc(S(N)(=O)=O)c2)c2c(N)ncnc21 (stereo not drawn) is ___
< 6.00

Fill in: pIC50 of CC(Nc1ncnc(N)c1C#N)c1cc2ccccn2c1-c1cccs1 (stereo not drawn) is ___
6.00 to 8.00

Fill in: pIC50 of N#Cc1c(N)ncnc1NCc1cc2ccccn2c1-c1ccccn1 is ___
6.00 to 8.00

Fill in: pIC50 of CC(c1cc2ccccn2c1-c1ccncc1)n1nc(-c2cc(O)cc(F)c2)c2c(N)ncnc21 (racemic) is ___
> 8.00

====

- System: PI3Kγ (Homo sapiens)
- Sequence (P48736 whole entry): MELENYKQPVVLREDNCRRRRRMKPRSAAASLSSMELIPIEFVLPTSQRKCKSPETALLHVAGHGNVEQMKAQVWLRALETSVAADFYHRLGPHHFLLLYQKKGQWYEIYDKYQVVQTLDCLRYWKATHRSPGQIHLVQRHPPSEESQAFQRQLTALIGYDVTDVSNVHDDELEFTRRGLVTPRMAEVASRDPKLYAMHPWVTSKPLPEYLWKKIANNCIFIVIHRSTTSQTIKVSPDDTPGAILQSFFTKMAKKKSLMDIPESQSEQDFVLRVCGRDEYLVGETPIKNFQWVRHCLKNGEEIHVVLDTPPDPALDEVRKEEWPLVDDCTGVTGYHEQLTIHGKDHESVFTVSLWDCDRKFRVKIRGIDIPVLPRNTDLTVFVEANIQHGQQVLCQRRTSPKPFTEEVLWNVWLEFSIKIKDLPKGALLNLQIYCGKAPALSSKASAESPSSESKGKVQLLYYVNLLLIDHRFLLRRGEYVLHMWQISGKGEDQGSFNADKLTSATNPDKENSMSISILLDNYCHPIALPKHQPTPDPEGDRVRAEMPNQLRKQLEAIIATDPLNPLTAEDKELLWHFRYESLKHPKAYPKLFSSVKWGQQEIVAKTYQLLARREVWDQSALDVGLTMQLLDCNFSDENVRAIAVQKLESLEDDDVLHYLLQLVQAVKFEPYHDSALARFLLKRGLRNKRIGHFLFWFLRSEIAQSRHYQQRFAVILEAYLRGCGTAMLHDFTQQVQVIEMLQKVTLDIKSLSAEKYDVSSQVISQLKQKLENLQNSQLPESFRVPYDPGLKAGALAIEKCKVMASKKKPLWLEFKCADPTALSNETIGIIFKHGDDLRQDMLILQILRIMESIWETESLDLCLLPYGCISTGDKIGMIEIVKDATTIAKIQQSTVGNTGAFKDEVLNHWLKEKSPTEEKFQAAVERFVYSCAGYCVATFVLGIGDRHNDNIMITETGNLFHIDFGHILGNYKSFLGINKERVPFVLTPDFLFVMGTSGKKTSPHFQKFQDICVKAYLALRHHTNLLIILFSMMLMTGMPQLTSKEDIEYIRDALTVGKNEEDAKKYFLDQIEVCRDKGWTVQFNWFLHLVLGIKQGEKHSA
- Test method notes: In vitro determination of the PI3K enzyme inhibitory activity in the cell free assay (ADP-Glo Kinase Assay), PI3Kγ
- Reported conditions: ATP 30 μM, read-out: PI3K gamma inhibition
Recorded metric: IC50

Example entries and their recorded answers appear below.
>>> reported_measurement("N#Cc1c(N)ncnc1NCc1cc2ccccn2c1-c1ccccc1")
"> 1000 nM"
>>> reported_measurement("Nc1ncnc2c1ncn2Cc1cc2ccccn2c1-c1ccccc1F")
"> 1000 nM"
>>> reported_measurement("Nc1ncnc2c1c(-c1cc(O)cc(F)c1)nn2Cc1cc2ccccn2c1-c1ccncc1")
"10 to 1000 nM"
>>> reported_measurement("Nc1ncnc2c1ncn2Cc1cc2ccccn2c1")
"> 1000 nM"
>>> reported_measurement("CC(c1cc2ccccn2c1-c1cccc(CN2CCN(C)CC2)n1)n1nc(-c2cc(O)cc(F)c2)c2c(N)ncnc21 (stereo not drawn)")
"10 to 1000 nM"
>>> reported_measurement("Nc1ncnc2c1ncn2Cc1cc2ccccn2c1-c1cccc(F)c1")
"> 1000 nM"
>>> reported_measurement("CC(c1cc2ccccn2c1C#CCN(C)C)n1nc(-c2cc(O)cc(F)c2)c2c(N)ncnc21 (stereo not drawn)")
"10 to 1000 nM"
>>> reported_measurement("Nc1ncnc2c1c(-c1cc(O)cc(F)c1)nn2Cc1cc2ccccn2c1-c1ccccn1")
"10 to 1000 nM"

Proceeding to the next compound to report its IC50.
Notebook: pull reported IC50 for PI3Kγ (Homo sapiens), entry CC(Nc1ncnc(N)c1C#N)c1cc2c(F)cccn2c1-c1ccccn1 (stereo not drawn)
> 1000 nM
